target-of-assay: recombinant human Jak2 (aa808-1132) (Homo sapiens (Human), UniProt O60674)
Sequence (O60674 808-1132): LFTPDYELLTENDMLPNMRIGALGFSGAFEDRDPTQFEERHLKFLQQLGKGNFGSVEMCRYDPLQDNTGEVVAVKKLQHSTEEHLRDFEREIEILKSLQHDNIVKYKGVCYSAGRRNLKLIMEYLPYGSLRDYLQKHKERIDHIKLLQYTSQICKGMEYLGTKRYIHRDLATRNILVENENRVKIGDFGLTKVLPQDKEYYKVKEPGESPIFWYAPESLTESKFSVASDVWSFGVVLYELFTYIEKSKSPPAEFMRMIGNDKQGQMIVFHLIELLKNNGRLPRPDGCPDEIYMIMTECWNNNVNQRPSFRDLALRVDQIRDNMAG
assay-summary: Kinase selectivity panel, substrate peptide phosphorylation (Caliper)
Assay type: biochemical
condition-notes: 45 uM ATP
measurement-kind: IC50 (µM)
Record the value in µM, omitting the unit from your answer.

query: Need IC50 of Cc1cc(Nc2nc(N[C@@H](C)c3ncc(F)cn3)ncc2Cl)n[nH]1 [reference compound] , thanks.
result: 0.0007

----------
Test system: Scleraxis (Scx) gene transcriptional activation in TT-D6 Scx-luciferase (ScxL) cell line
assay-summary: SCX-LUC in vitro assay (Scx-luciferase reporter)
Format: cell-based
condition-notes: Mus musculus, 96 h; Table 3; four days; read-out: Scx-Luc (EC50 μM)
Exercise: state measured EC50 for each of the compounds provided.
Record the value in µM, omitting the unit from your answer.

query: Need EC50 of Cc1cc(S(=O)(=O)N[C@@H]2COCC[C@H]2O)ccc1-c1ccc2[nH]nc(N)c2c1C , thanks.
result: 1.25

query: Need EC50 of COc1c(-c2ccc(S(=O)(=O)N3CC(F)(F)C[C@H]3CO)cc2F)ccc2[nH]nc(N)c12 , thanks.
result: 1.33

query: Need EC50 of Cc1cc(S(=O)(=O)N(C)[C@@H]2CCC[C@@H]2O)ccc1-c1ccc2[nH]nc(N)c2c1C , thanks.
result: 1.69

query: Need EC50 of Cc1c(-c2ccc(S(=O)(=O)N[C@H]3C[C@](O)(C(F)(F)F)C3)cc2Cl)ccc2[nH]nc(N)c12 , thanks.
result: 0.228

query: Need EC50 of Cc1cc(S(=O)(=O)N2CCC(O)CC2)ccc1-c1ccc2[nH]nc(N)c2c1C , thanks.
result: 3.92

query: Need EC50 of Cc1cc(S(=O)(=O)N[C@@H]2CCC[C@@H](C#N)C2)ccc1-c1ccc2[nH]nc(N)c2c1C , thanks.
result: 0.745

query: Need EC50 of Cc1cc(S(=O)(=O)N2CC[C@@H](O)C2)ccc1-c1ccc2[nH]nc(N)c2c1C , thanks.
result: 0.511

query: Need EC50 of Cc1cc(S(=O)(=O)NC2CC(O)(Cc3ccccc3)C2)ccc1-c1ccc2[nH]nc(N)c2c1C (stereo not shown) , thanks.
result: 1.58

query: Need EC50 of Cc1cc(S(=O)(=O)N2CCC[C@H]2CO)ccc1-c1ccc2[nH]nc(N)c2c1C , thanks.
result: 0.431

query: Need EC50 of Cc1cc(S(=O)(=O)N2CC(O)C2)ccc1-c1ccc2[nH]nc(N)c2c1C , thanks.
result: 4.13

query: Need EC50 of Cc1cc(S(=O)(=O)NC2CCCC(O)C2)ccc1-c1ccc2[nH]nc(N)c2c1C (stereo not shown) , thanks.
result: 0.606

query: Need EC50 of COc1c(-c2ccc(S(=O)(=O)N[C@@H]3CCC[C@@H]3O)cc2Cl)ccc2[nH]nc(N)c12 , thanks.
result: 0.286

query: Need EC50 of COc1c(-c2ccc(S(=O)(=O)N[C@@H]3CCC[C@@H]3O)cc2C)ccc2[nH]nc(N)c12 , thanks.
result: 0.632

query: Need EC50 of Nc1n[nH]c2ccc(-c3ccc(S(=O)(=O)N[C@@H]4CCC[C@@H]4O)cc3Cl)c(Cl)c12 , thanks.
result: 0.148

query: Need EC50 of Cc1cc(S(=O)(=O)N2CC(F)(F)C[C@H]2CO)ccc1-c1ccc2[nH]nc(N)c2c1Cl , thanks.
result: 0.242

query: Need EC50 of Cc1cc(S(=O)(=O)N[C@H]2CC[C@@H](C#N)CC2)ccc1-c1ccc2[nH]nc(N)c2c1C , thanks.
result: 1.35

query: Need EC50 of Cc1cc(S(=O)(=O)N2CCC(F)(F)C2)ccc1-c1ccc2[nH]nc(N)c2c1C , thanks.
result: 0.692

query: Need EC50 of Cc1cc(S(=O)(=O)N2CCC[C@H]2C(C)O)ccc1-c1ccc2[nH]nc(N)c2c1C (stereo partly shown) , thanks.
result: 1.61

query: Need EC50 of Cc1cc(S(=O)(=O)N2CCC(F)(F)CC2)ccc1-c1ccc2[nH]nc(N)c2c1C , thanks.
result: 2.53

Origin of the recorded values: patent US10112907B2
